molecular target: UniProt P07333; experiment: Inhibition of CSF1R at 10 uM after 60 mins by TR-FRET assay
Sequence (P07333 whole entry): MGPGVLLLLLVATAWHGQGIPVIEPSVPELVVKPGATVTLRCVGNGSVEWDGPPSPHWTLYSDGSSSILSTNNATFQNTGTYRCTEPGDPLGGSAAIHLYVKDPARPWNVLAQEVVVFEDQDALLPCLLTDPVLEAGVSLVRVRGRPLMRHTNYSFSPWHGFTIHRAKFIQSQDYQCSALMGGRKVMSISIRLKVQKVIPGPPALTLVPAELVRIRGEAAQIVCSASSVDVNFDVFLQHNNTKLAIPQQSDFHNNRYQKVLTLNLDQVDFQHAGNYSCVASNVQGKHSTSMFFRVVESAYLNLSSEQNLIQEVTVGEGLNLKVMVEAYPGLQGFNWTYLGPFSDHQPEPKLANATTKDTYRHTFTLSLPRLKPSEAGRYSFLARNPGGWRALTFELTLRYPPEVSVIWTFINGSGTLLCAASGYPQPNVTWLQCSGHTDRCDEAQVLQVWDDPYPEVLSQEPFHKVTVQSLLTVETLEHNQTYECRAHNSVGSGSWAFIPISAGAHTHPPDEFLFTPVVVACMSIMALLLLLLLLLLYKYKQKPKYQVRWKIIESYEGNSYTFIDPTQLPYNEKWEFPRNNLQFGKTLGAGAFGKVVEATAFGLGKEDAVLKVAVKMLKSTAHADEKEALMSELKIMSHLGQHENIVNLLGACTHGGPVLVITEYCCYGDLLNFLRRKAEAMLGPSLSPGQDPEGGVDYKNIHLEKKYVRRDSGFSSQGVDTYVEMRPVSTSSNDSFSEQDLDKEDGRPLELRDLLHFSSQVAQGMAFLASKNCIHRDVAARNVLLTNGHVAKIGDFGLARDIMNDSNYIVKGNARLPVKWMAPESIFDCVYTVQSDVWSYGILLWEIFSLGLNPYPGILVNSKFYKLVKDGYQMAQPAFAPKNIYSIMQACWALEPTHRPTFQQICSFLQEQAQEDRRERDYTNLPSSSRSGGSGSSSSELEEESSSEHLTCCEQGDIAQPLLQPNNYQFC
propertyLabel: inhibition (%)

>  <compound>
O=c1[nH]nc(-c2ccnc(NC3CCOCC3)c2)n1-c1ccc2ccccc2c1

>  <numericReadout>
74

$$$$

(1) O=c1[nH]nc(-c2ccnc(NC3CCCOC3)c2)n1-c1ccc2ccccc2c1 (stereo unspecified)
(2) O=c1n(Cc2ccccn2)nc(-c2ccnc(NC3CCOCC3)c2)n1-c1ccc2ccccc2c1
(3) O=c1[nH]nc(-c2ccnc(NC3CCCCC3)c2)n1-c1ccc2ccccc2c1
(4) O=c1n(Cc2ccncc2)nc(-c2ccnc(NC3CCCCC3)c2)n1-c1ccc2ccccc2c1
(5) O=c1n(C2CCOCC2)nc(-c2ccnc(NC3CCCCC3)c2)n1-c1ccc2ccccc2c1
Sequence the entries by inhibition, beginning with the highest number. List the labels in the requested order. 1, 5, 2, 4, 3
(1: 60%, 5: 7%, 2: 4%, 4: 1%, 3: -1%)
